compounds and their reported IC50
Assay: Inhibition of X4-tropic HIV1 3B gp120-mediated entry into human MT2 cells assessed as Inhibition of p24 production incubated overnight followed by compound wash-out measured after 4 days post-infection by multi-cycle neutralization assay
Assay type: cell-based
Conditions: Human immunodeficiency virus 1, 3B, MT2, 96 h
Kindly answer with a numeric value in µM, unit omitted.

Request: Note IC50 for the compound shown: Cc1nc(C(NC(=O)C(=O)NC2CCCCCC2)C2CCCCN2)sc1CCO (mixture of isomers)
Response: 19.6

---

Test: Cytotoxicity against human TZM-b1 cells after 3 days by XTT assay
Type: cell-based
Details: TZM-b1 cells
assay-endpoint: CC50 at 72 h

Below, each entry is followed by its recorded CC50 at 72 h result.
Cc1nc(C(NC(=O)C(=O)Nc2ccc(Cl)cc2)C2CCCN2)sc1CCO (mixture of isomers) | 4.9 µM
CC(=O)c1ccc(NC(=O)C(=O)NC(c2nc(C)c(CCO)s2)C2CCCCN2)cc1 (mixture of isomers) | > 77.3 µM

Switching to the query record.
Request: Note CC50 at 72 h for the compound shown: CC(=O)N1CCCCC1C(NC(=O)C(=O)Nc1ccc(Cl)cc1)c1nc(C)c(CCO)s1 (mixture of isomers)
Response: > 84 µM
